assay: biodistribution in A431-CCK2R/A431-mock xenografted BALB/c nude mice; format: in vivo; conditions: female, athymic BALB/c nude, mouse, A431-CCK2R xenograft tumor, iv, 20 pmol, total radioactivity, 20 pmol, 4 h p.i.; read-out: tumor uptake in A431-CCK2R xenografts
Non-standard residues stand in square brackets, D forms with d. Residues, ends and D or L forms follow the SMILES beside them. *: point of attachment. DOTA = O=C(O)CN1CCN(CC(=O)O)CCN(CC(=O)*)CCN(CC(=O)O)CC1; 1Nal = N[C@@H](Cc1cccc2ccccc12)C(=O)O; NMeNle = CCCC[C@H](NC)C(=O)O
Known tissue uptake at 4 h of a selection of compounds
Just the number in %ID/g, nothing appended.

Before answering, review these 2 worked examples.
{"compound": "CCCC[C@@H](C(=O)N[C@@H](CC(=O)O)C(=O)N[C@@H](Cc1cccc2ccccc12)C(N)=O)N(C)C(=O)[C@H](Cc1c[nH]c2ccccc12)NC(=O)[C@@H]1CCCN1C(=O)[C@H](Cc1ccc(O)cc1)NC(=O)[C@H](C)NC(=O)[C@@H](CCC(=O)O)NC(=O)CN1CCN(CC(=O)O)CCN(CC(=O)O)CCN(CC(=O)O)CC1 [[^177Lu]Lu-3, metal not drawn] ({DOTA}-[dE]AYPW[NMeNle]D[1Nal]-NH2)", "unit_annotation": "%ID/g", "test_result": 28.6}
{"compound": "CCCC[C@@H](C(=O)N[C@@H](CC(=O)O)C(=O)N[C@@H](Cc1cccc2ccccc12)C(N)=O)N(C)C(=O)[C@H](Cc1c[nH]c2ccccc12)NC(=O)CNC(=O)[C@@H]1CCCN1C(=O)[C@H](Cc1ccc(O)cc1)NC(=O)[C@@H](CCC(=O)O)NC(=O)CN1CCN(CC(=O)O)CCN(CC(=O)O)CCN(CC(=O)O)CC1 [[^177Lu]Lu-2, metal not drawn] ({DOTA}-[dE]YPGW[NMeNle]D[1Nal]-NH2)", "unit_annotation": "%ID/g", "test_result": 33.2}

Q) Sample CCCC[C@@H](C(=O)N[C@@H](CC(=O)O)C(=O)N[C@@H](Cc1cccc2ccccc12)C(N)=O)N(C)C(=O)[C@H](Cc1c[nH]c2ccccc12)NC(=O)CNC(=O)[C@H](Cc1ccc(O)cc1)NC(=O)[C@@H]1CCCN1C(=O)[C@@H](CCC(=O)O)NC(=O)CN1CCN(CC(=O)O)CCN(CC(=O)O)CCN(CC(=O)O)CC1 [[^177Lu]Lu-1, metal not drawn] ({DOTA}-[dE]PYGW[NMeNle]D[1Nal]-NH2) — what was its tissue uptake at 4 h?
A) 34.7

----------
assay: biodistribution in A431-CCK2R/A431-mock xenografted BALB/c nude mice; assay type: in vivo; conditions: female, athymic BALB/c nude, mouse, tumor/kidney, iv, 20 pmol, total radioactivity, 20 pmol, 12 h p.i.; read-out: tumor-to-kidney ratio
Non-standard residues stand in square brackets, D forms with d. Residues, ends and D or L forms follow the SMILES beside them. *: point of attachment. DOTA = O=C(O)CN1CCN(CC(=O)O)CCN(CC(=O)*)CCN(CC(=O)O)CC1; 1Nal = N[C@@H](Cc1cccc2ccccc12)C(=O)O; NMeNle = CCCC[C@H](NC)C(=O)O
metric_name: tissue to tissue ratio at 12 h
The response must contain the number and no unit.

{"molecule": "CCCC[C@@H](C(=O)N[C@@H](CC(=O)O)C(=O)N[C@@H](Cc1cccc2ccccc12)C(N)=O)N(C)C(=O)[C@H](Cc1c[nH]c2ccccc12)NC(=O)CNC(=O)[C@@H]1CCCN1C(=O)[C@H](Cc1ccc(O)cc1)NC(=O)[C@@H](CCC(=O)O)NC(=O)CN1CCN(CC(=O)O)CCN(CC(=O)O)CCN(CC(=O)O)CC1 [[^177Lu]Lu-2, metal not drawn] ({DOTA}-[dE]YPGW[NMeNle]D[1Nal]-NH2)", "metric_name": "tissue to tissue ratio at 12 h", "test_result": 7.41}

Q) Sample CCCC[C@@H](C(=O)N[C@@H](CC(=O)O)C(=O)N[C@@H](Cc1cccc2ccccc12)C(N)=O)N(C)C(=O)[C@H](Cc1c[nH]c2ccccc12)NC(=O)CNC(=O)[C@H](Cc1ccc(O)cc1)NC(=O)[C@@H]1CCCN1C(=O)[C@@H](CCC(=O)O)NC(=O)CN1CCN(CC(=O)O)CCN(CC(=O)O)CCN(CC(=O)O)CC1 [[^177Lu]Lu-1, metal not drawn] ({DOTA}-[dE]PYGW[NMeNle]D[1Nal]-NH2) — what was its tissue to tissue ratio at 12 h?
A) 8.14

----------
Known tissue uptake at 4 h of a selection of compounds
assay: biodistribution in A431-CCK2R/A431-mock xenografted BALB/c nude mice; type: in vivo; settings: female, athymic BALB/c nude, mouse, kidney, iv, 150 pmol, total radioactivity, 150 pmol, 4 h p.i.; read-out: uptake in kidney
Non-standard residues stand in square brackets, D forms with d. Residues, ends and D or L forms follow the SMILES beside them. *: point of attachment. DOTA = O=C(O)CN1CCN(CC(=O)O)CCN(CC(=O)*)CCN(CC(=O)O)CC1; 1Nal = N[C@@H](Cc1cccc2ccccc12)C(=O)O; NMeNle = CCCC[C@H](NC)C(=O)O
Just the number in %ID/g, nothing appended.

{"compound": "CCCC[C@@H](C(=O)N[C@@H](CC(=O)O)C(=O)N[C@@H](Cc1cccc2ccccc12)C(N)=O)N(C)C(=O)[C@H](Cc1c[nH]c2ccccc12)NC(=O)CNC(=O)[C@@H]1CCCN1C(=O)[C@H](Cc1ccc(O)cc1)NC(=O)[C@@H](CCC(=O)O)NC(=O)CN1CCN(CC(=O)O)CCN(CC(=O)O)CCN(CC(=O)O)CC1 [[^177Lu]Lu-2, metal not drawn] ({DOTA}-[dE]YPGW[NMeNle]D[1Nal]-NH2)", "unit_annotation": "%ID/g", "test_result": 7.88}

Consider the record given below.
Q) Sample CCCC[C@@H](C(=O)N[C@@H](CC(=O)O)C(=O)N[C@@H](Cc1cccc2ccccc12)C(N)=O)N(C)C(=O)[C@H](Cc1c[nH]c2ccccc12)NC(=O)CNC(=O)[C@H](Cc1ccc(O)cc1)NC(=O)[C@@H]1CCCN1C(=O)[C@@H](CCC(=O)O)NC(=O)CN1CCN(CC(=O)O)CCN(CC(=O)O)CCN(CC(=O)O)CC1 [[^177Lu]Lu-1, metal not drawn] ({DOTA}-[dE]PYGW[NMeNle]D[1Nal]-NH2) — what was its tissue uptake at 4 h?
A) 4.04

----------
Known tissue uptake at 4 h of a selection of compounds
assay: biodistribution in A431-CCK2R/A431-mock xenografted BALB/c nude mice; type: in vivo; conditions: female, athymic BALB/c nude, mouse, blood, iv, 20 pmol, total radioactivity, 20 pmol, 4 h p.i.; read-out: uptake in blood
Non-standard residues stand in square brackets, D forms with d. Residues, ends and D or L forms follow the SMILES beside them. *: point of attachment. DOTA = O=C(O)CN1CCN(CC(=O)O)CCN(CC(=O)*)CCN(CC(=O)O)CC1; 1Nal = N[C@@H](Cc1cccc2ccccc12)C(=O)O; NMeNle = CCCC[C@H](NC)C(=O)O
Just the number in %ID/g, nothing appended.

Before answering, review these 2 worked examples.
{"compound": "CCCC[C@@H](C(=O)N[C@@H](CC(=O)O)C(=O)N[C@@H](Cc1cccc2ccccc12)C(N)=O)N(C)C(=O)[C@H](Cc1c[nH]c2ccccc12)NC(=O)[C@@H]1CCCN1C(=O)[C@H](Cc1ccc(O)cc1)NC(=O)[C@H](C)NC(=O)[C@@H](CCC(=O)O)NC(=O)CN1CCN(CC(=O)O)CCN(CC(=O)O)CCN(CC(=O)O)CC1 [[^177Lu]Lu-3, metal not drawn] ({DOTA}-[dE]AYPW[NMeNle]D[1Nal]-NH2)", "tissue uptake at 4 h / %ID/g": 0.06}
{"compound": "CCCC[C@@H](C(=O)N[C@@H](CC(=O)O)C(=O)N[C@@H](Cc1cccc2ccccc12)C(N)=O)N(C)C(=O)[C@H](Cc1c[nH]c2ccccc12)NC(=O)CNC(=O)[C@H](Cc1ccc(O)cc1)NC(=O)[C@@H]1CCCN1C(=O)[C@@H](CCC(=O)O)NC(=O)CN1CCN(CC(=O)O)CCN(CC(=O)O)CCN(CC(=O)O)CC1 [[^177Lu]Lu-1, metal not drawn] ({DOTA}-[dE]PYGW[NMeNle]D[1Nal]-NH2)", "tissue uptake at 4 h / %ID/g": 0.07}

Q) Sample CCCC[C@@H](C(=O)N[C@@H](CC(=O)O)C(=O)N[C@@H](Cc1cccc2ccccc12)C(N)=O)N(C)C(=O)[C@H](Cc1c[nH]c2ccccc12)NC(=O)CNC(=O)[C@@H]1CCCN1C(=O)[C@H](Cc1ccc(O)cc1)NC(=O)[C@@H](CCC(=O)O)NC(=O)CN1CCN(CC(=O)O)CCN(CC(=O)O)CCN(CC(=O)O)CC1 [[^177Lu]Lu-2, metal not drawn] ({DOTA}-[dE]YPGW[NMeNle]D[1Nal]-NH2) — what was its tissue uptake at 4 h?
A) 0.08
